Give measured CC50 for each item. Keep answers brief.
System: SK-MEL-5
Experiment: SRB anti-cancer assay, Melanoma
Format: cell-based, human
Details: SK-MEL-5 (Melanoma), 48 h; read-out: LC50 (the source's name)
Give bare numbers, in µM.

structureAsSmiles: N=c1nc(N)c2ncn([C@@H]3O[C@H](COC(=O)c4ccccc4)[C@@H](OC(=O)c4ccccc4)[C@H]3OC(=O)c3ccccc3)c2c(N)n1
CC50 [µM]: 5.16

Here is another compound to look at.
Entry `N=c1nc(N)c2ncn([C@@H]3O[C@H](CO)[C@@H](O)[C@H]3O)c2c(N)n1` , CC50 reported as 50.9
